biological target: CIB1 and αIIb interaction (CIB1-GST : F-αIIb peptide) (Homo sapiens, UniProt Q99828); construct: made in house; host or cells: BL-21 plus RIL cells (E. coli); assay: FP assay, 1536-well qHTS format (primary and confirmatory screen); type: binding; settings: qHTS FP screen hits, Table S2; one class per curve where COUNT > 1; negative sign = inhibitory curve
The following compounds are listed with their measured Curve Class values.
Measured Attribute: Curve Class

Cc1ccc(C(=O)c2no[n+]([O-])c2C(=O)c2ccc(C)cc2)cc1.O=C(O)C(F)(F)F ... -1.2
COC(=O)C12C(=O)C(C)(O)C(=O)C1(C)C(C)=CC1C34CCC(OC3=O)C(C)(CO)C4CCC12C (stereo not shown) ... -2.2
C=C1C(=O)OC2C(OC(=O)C=C(C)C)C(C)=C3C(=O)C=C(C)C3C(O)C12 (stereo not shown) ... -1.2
Nc1nc2c(s1)C(c1ccccc1C(F)(F)F)CC(=O)N2.O=C(O)C(F)(F)F (stereo not shown) ... -2.2
COc1cc(Nc2c(C#N)cnc3cc(OCCCN4CCN(C)CC4)c(OC)cc23)c(Cl)cc1Cl ... -2.2
COc1nc2ccc(Br)cc2cc1[C@@H](c1ccccc1)[C@@](O)(CCN(C)C)c1cccc2ccccc12 ... -2.2
COc1ccc(CNC(=O)c2nc(S(=O)(=O)Cc3ccccc3)ncc2Cl)cc1.O=C(O)C(F)(F)F ... -1.2
N#Cc1ccc(NS(=O)(=O)c2ccc(Nc3nc(-c4ccccc4)cs3)cc2)cc1.O=C(O)C(F)(F)F ... -2.2
CCc1oc2ccccc2c1C(=O)c1cc(I)c(O)c(I)c1 ... -2.2
CN(C(=O)CN(CCO)CC(=O)N(C)C(C)(C)Cc1ccccc1)C(C)(C)Cc1ccccc1 ... -3
C[C@@H]1CC[C@]2(C)C3(C)CC[C@@]2(OC3=O)[C@@]12C[C@H](c1ccoc1)OC2=O ... -1.2
O=C(O)C(F)(F)F.O=S(=O)(Nc1nc2n(n1)C(c1ccccc1)C=C(c1ccc(Cl)cc1)N2)c1ccccc1 (stereo not shown) ... -1.1
CC(=O)c1c(O)cc2cccc3c2c1CC(C)(O)O3 (stereo not shown) ... -2.2
Nc1c(Cc2ccc(S(N)(=O)=O)cc2)c(-c2cccc(-c3ccccc3)c2)nn1-c1nc(C(=O)O)cs1.O=C(O)C(F)(F)F ... -2.2
CC[C@@H](CO)NC(=O)[C@@H]1C=C2c3cccc4c3c(cn4C)C[C@H]2N(C)C1 ... -2.2
O=C1c2cccc(O)c2C(=O)c2c(O)cc(CO)cc21 ... -1.2
COc1ccc(S(=O)(=O)Nc2cnccc2C(=O)Nc2nc(-c3ccccc3)cs2)cc1.O=C(O)C(F)(F)F ... -2.2
Oc1ccc2c(-c3c(-c4ccccn4)nn4c3CCC4)ccnc2c1 ... -1.2
O=C(O)C(F)(F)F.O=S(=O)(NCc1nccs1)c1ccc(Nc2nc(-c3ccccc3)cs2)cc1 ... -2.2
C=Cc1c(C)c2cc3[nH]c(cc4nc(cc5nc(cc1[nH]2)C(C)=C5CCC(=O)O)C(CCC(=O)O)=C4C)c(C)c3C=C ... -2.2
COc1ccccc1Nc1ccc2c(O)cc(S(=O)(=O)O)cc2c1.O=C(O)C(F)(F)F ... -2.2
CN(C)CCCn1cc(C2=C(c3c[nH]c4ccccc34)C(=O)NC2=O)c2ccccc21 ... -2.2

###

target: CIB1 and αIIb interaction (CIB1-GST : F-αIIb peptide) (Homo sapiens); construct: made in house; host or cells: BL-21 plus RIL cells (E. coli); assay: FP assay, 1536-well qHTS format (primary and confirmatory screen); assay type: binding; details: qHTS primary screen hits, Table S2; negative sign = inhibitory curve; several classes where COUNT > 1
Each entry gets NOT MET if its Curve Class stays under -2, and MET if its Curve Class is -2 or above.

COc1cccc2nc3c(C(=O)NCCN(C)C)cccc3cc12.O=C(O)C(F)(F)F [NCGC00371843-01] ... NOT MET
CC(=O)[O][Hg][c]1ccccc1 [NCGC00091050-09] ... MET
COc1ccc2c(=O)n3nc(Nc4cccc(N5CCN(C)CC5)c4)sc3nc2c1.Cl [NCGC00187813-01] ... MET
O=C1Nc2cc(Cl)ccc2Nc2cscc21 [NCGC00167991-01] ... NOT MET
CC(C)(C)CNc1ncnc2ccc(-c3ccc(CO)o3)cc12.O=C(O)C(F)(F)F [NCGC00238375-01] ... NOT MET
C#CCOC(=O)NCCCC[C@H](N)C(=O)O [NCGC00351539-01] ... NOT MET
CN(C)c1ccc(-c2ccnc(O)c2N)cc1 [NCGC00181386-01] ... NOT MET
Nc1ccn(C2CO[C@H](CO)O2)c(=O)n1 (stereo partly shown) [NCGC00183848-01] ... NOT MET
NS(=O)(=O)c1ccc(NCc2cn(-c3nc(C(=O)O)cs3)nc2-c2ccccc2)cc1.O=C(O)C(F)(F)F [NCGC00357525-01] ... NOT MET
C[C@@H](NCc1cc2ccccc2[nH]1)c1cccc2ccccc12.Cl [NCGC00344505-01] ... NOT MET
CNc1nc2c(s1)C(c1c(F)cccc1Cl)CC(=O)N2.O=C(O)C(F)(F)F (stereo not shown) [NCGC00488265-02] ... NOT MET
Nc1c(C(=O)Nc2ccc(F)cc2)sc2nc(-c3cccs3)ccc12.O=C(O)C(F)(F)F [NCGC00371815-01] ... NOT MET
COc1cc(NS(=O)(=O)c2cccc([N+](=O)[O-])c2)c2ncccc2c1 [NCGC00161706-01] ... NOT MET
COc1cc2c(cc1OC)CN(CCc1ccc(NC(=O)c3cc(OC)c(OC)cc3NC(=O)c3cnc4ccccc4c3)cc1)CC2 [NCGC00346448-01] ... NOT MET
COC(=O)c1ccc(O)c2ncc(-c3ccc(C(=O)N4CCNCC4)cc3)cc12.O=C(O)C(F)(F)F [NCGC00189509-01] ... MET
O=C(O)C(F)(F)F.OCc1ccc(-c2ccc3ncnc(NCCc4c[nH]cn4)c3c2)o1 [NCGC00188669-01] ... NOT MET

###

Molecular target: CIB1 and αIIb interaction (CIB1-GST : F-αIIb peptide) (Homo sapiens, UniProt Q99828)
Construct: made in house; host or cells: BL-21 plus RIL cells (E. coli)
Sequence (Q99828 1-191): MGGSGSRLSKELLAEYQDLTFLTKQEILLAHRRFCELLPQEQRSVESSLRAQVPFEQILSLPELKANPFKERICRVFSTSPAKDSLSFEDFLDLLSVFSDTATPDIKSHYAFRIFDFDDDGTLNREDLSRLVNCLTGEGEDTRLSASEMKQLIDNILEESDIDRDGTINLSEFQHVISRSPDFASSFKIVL
Test: FP assay, 1536-well qHTS format (primary and confirmatory screen)
Type: binding
Settings: confirmatory screen, qHTS curve class; negative sign = inhibitory curve
Measured Attribute: Curve Class (confirmatory screen)

CCOC(=O)CC(SP(=S)(OC)OC)C(=O)OCC (centres unmarked) [NCGC00091902-08] ... -2.2
Cn1ccc(=Nc2ccc(NC(=O)c3ccc(/N=c4\ccn(C)c5ccc([N+](=O)[O-])cc45)cc3[N+](=O)[O-])cc2)cc1.O=C(O)C(F)(F)F [NCGC00356066-02] ... -1.2
Cl.O=S(=O)(Nc1nccs1)c1ccc(NCc2cc(Cl)ccc2O)cc1 [NCGC00273561-01] ... -2.4
COc1nc2ccc(Br)cc2cc1[C@@H](c1ccccc1)[C@@](O)(CCN(C)C)c1cccc2ccccc12 [NCGC00348215-04] ... -2.2
C=CCNc1oc(-c2ccc(Cl)cc2)nc1C#N.O=C(O)C(F)(F)F [NCGC00183412-01] ... -2.2
Nc1ccc(O)c([N+](=O)[O-])c1 [NCGC00091261-03] ... -1.1
CCOC(=O)C1CCN(C(=O)C(C)(C)NC(=O)Nc2ccc(C#N)cc2)CC1.O=C(O)C(F)(F)F [NCGC00242565-01] ... -1.4
O=c1[nH]c(=O)c2nc3ccccc3nc2[nH]1 [NCGC00015021-05] ... -2.2
COc1cc(Nc2c(C#N)cnc3cc(OCCCN4CCN(C)CC4)c(OC)cc23)c(Cl)cc1Cl [NCGC00241107-05] ... -2.2
O=C1C[C@@](c2ccc(N3CCOCC3)cc2)(c2ccsc2)NC(=O)C1Sc1ccccc1Cl (some centres unmarked) [NCGC00420796-01] ... -2.2
Cc1cc2nc3ccc(N(C)C)cc3[s+]c2cc1N.Cl.[Cl-] [NCGC00181775-02] ... -2.2
C=C1[C@@H](C)[C@H]2[C@H](Cc3ccccc3)NC(=O)[C@]23OC(=O)/C=C/C(=O)CCC[C@@H](C)C/C=C/[C@H]3[C@@H]1O [NCGC00388356-01] ... -1.1
Cl.O=C1c2c(O)ccc(O)c2C(=O)c2c(NCCNCCO)ccc(NCCNCCO)c21 [NCGC00015693-04] ... -1.1
CSc1cc2c(s1)c1cnn(Cc3cccc(N)c3)c(=O)c1n2C.O=C(O)C(F)(F)F [NCGC00188341-01] ... -2.1
